- system-name: DNA-PK (Homo sapiens (Human), UniProt P78527)
- protocol-details: DNA-PK Enzyme-Linked Immunosorbent Assay (phosphorylation of GST-p53 (1-101) peptide)
- Format: biochemical
- experimental-conditions: ELISA, ATP 20 μM
Where a name gives a salt, the structure may show the parent alone.
Form field: IC50 (one value per entry).

molecule: CN(C)CCCNc1ncc(-c2ccc3ncc4c(c3c2)C2(CC2)C(=O)N4C)cn1
IC50: 1 to 100 nM

input: Supply IC50 value. Item: CN1CCC(c2ncc(-c3ccc4ncc5c(c4c3)C3(CCC3)C(=O)N5C)cc2NS(C)(=O)=O)CC1
output: 1 to 100 nM

input: Entry CN1C(=O)C2(CCC2)c2c1cnc1ccc(-c3cnc(N4CC(N5CCCC5)C4)c(NS(C)(=O)=O)c3)cc21 needs its IC50 filled in; supply it.
output: 1 to 100 nM

input: For CN(C)CCCOc1ncc(-c2ccc3ncc4c(c3c2)C2(CCC2)C(=O)N4C)cc1NS(=O)(=O)c1cncs1 [Example 169, hydrochloride] , write its IC50.
output: < 0.5 nM

====

- system-name: DNA-PK (Homo sapiens (Human))
- protocol-details: DNA-PK Enzyme-Linked Immunosorbent Assay (phosphorylation of GST-p53 (1-101) peptide)
- Format: biochemical
- experimental-conditions: ELISA, ATP 20 μM
Counter-ions that a name gives are not always drawn.
Catalogue of compounds with associated IC50

compound: CN1C(=O)C2(CC2)c2c1cnc1ccc(-c3cnc(Cl)c(NS(=O)(=O)c4ccccc4)c3)cc21
IC50: < 0.5 nM

input: Give reported IC50 value for Cc1cc(S(=O)(=O)Nc2cc(-c3ccc4ncc5c(c4c3)C3(CCC3)C(=O)N5C)cnc2N2CCN(C)CC2)sn1
output: < 0.5 nM

input: Fill in IC50 for record CN1C(=O)C2(CC2)c2c1cnc1ccc(-c3cnc(OCCC4CCCCN4C)c(NS(=O)(=O)C4CC4)c3)cc21 (stereo not drawn)
output: 1 to 100 nM

input: State, in one line, measured IC50 of Cl.[2H]C1([2H])N(CCCOc2ncc(-c3ccc4ncc5c(c4c3)C3(CCC3)C(=O)N5C)cc2NS(=O)(=O)c2ccc(C)nc2)C([2H])([2H])C([2H])([2H])C([2H])([2H])C1([2H])[2H]
output: 0.5 to 1 nM

input: Read the entry CNCCOc1ncc(-c2ccc3ncc4c(c3c2)C2(CCC2)C(=O)N4C)cc1NS(=O)(=O)c1ccccc1 and write its reported IC50.
output: < 0.5 nM

input: For Cc1ccc(S(=O)(=O)Nc2cc(-c3ccc4ncc5c(c4c3)C3(CCC3)C(=O)N5C)cnc2OCCCN(C)C)cn1 [Example 137, hydrochloride] , write its IC50.
output: 1 to 100 nM

====

- system-name: DNA-PK (Homo sapiens (Human), UniProt P78527)
- protocol-details: DNA-PK Enzyme-Linked Immunosorbent Assay (phosphorylation of GST-p53 (1-101) peptide)
- Assay type: biochemical
- experimental-conditions: ELISA, ATP 20 μM
pIC50: −log10 of the molar value. Where a name gives a salt, the structure may show the parent alone.
Listed below: pIC50 values for each entry.

Example results:
compound: CC(C)NCCOc1ncc(-c2ccc3ncc4c(c3c2)C2(CCCC2)C2=NCCN24)cc1NS(C)(=O)=O [Example 257]
pIC50: > 9.30
//
compound: CN(C)CCCOc1ncc(-c2ccc3ncc4c(c3c2)C2(CCC2)C(=O)N4C)cc1NS(=O)(=O)CCN(C)C [Example 264]
pIC50: 7.00 to 9.00

input: Supply recorded pIC50 for CN(C)CC(O)COc1ncc(-c2ccc3ncc4c(c3c2)C2(CCC2)C(=O)N4C)cc1NS(C)(=O)=O (stereo not shown) [Example 295] here.
output: 9.00 to 9.30

input: # return recorded pIC50 for input CN(C)CCCOc1ncc(-c2ccc3ncc4c(c3c2)C2(CC2)C(=O)N4C)cc1NS(=O)(=O)c1cc(Cl)cc(Cl)c1 [Example 125]
output: > 9.30

input: Look up pIC50 of CN(C)CCCOc1ncc(-c2ccc3ncc4c(c3c2)C2(CCC2)C(=O)N4C)cc1NS(=O)(=O)c1cncc(Cl)c1 [Example 130, hydrochloride] and report it.
output: 7.00 to 9.00

input: Please supply the value of reported pIC50 for the item CN(C)c1ncc(-c2ccc3ncc4c(c3c2)C2(CCC2)C(=O)N4C)cc1NS(=O)(=O)c1ccccc1 [Example 10]
output: > 9.30

input: Provide measured pIC50 value, entry: CN1C(=O)C2(CCC2)c2c1cnc1ccc(-c3cnc(OCCCN4CCCC4)c(NS(=O)(=O)C4CC4)c3)cc21 [Example 235]
output: 7.00 to 9.00

Values from patent US12187742B2
